target: SARS-CoV-2 spike protein receptor binding domain (RBD) (SARS-CoV-2, UniProt P0DTC2 319-539); assay: ELISA on coated RBD protein
RESULT TYPE: EC50 (µg/mL)
Field: numeric (µg/mL). Do not append units.

Task item: Sample C065 (antibody, V domains shown) VH: QVQLQESGPGLVKPSQTLSLTCTVSGGSISSSNYYWSWIRQHPGKGLEWIGYIDYSGGTYYNPSLKSRVTISVDTSKNQFSLKLSSVTAADTAVYYCARVSTTVTTYLVGGFDIWGQGTMVTVSS VL: IRMTQSPSSLSASVGDRVTITCQASQDITNYLNWYQQKPGKAPKLLLYDASNLETGVPSRFSGSGSGTDFTFTISSLQPEDIATYYCQQYDNLPWTFGQGTKVEIK — what was its EC50?
Reply: 0.0291
